Listed next: entries and their corresponding CC50.
Test system: MDCK
Assay: Cytotoxicity against MDCK cells after 48 hrs by methylene blue dye-based spectroscopy relative to control
Assay type: cell-based, Canis lupus familiaris
Conditions: dog, read-out: CC50

Consider the worked cases shown below.
input: Form entry - test system: MDCK; read-out: CC50; molecule: COc1ccc(NC(=O)/C(O)=C/C(=O)c2ccc(Cl)cc2)cc1
output: > 100 µM

input: Form entry - test system: MDCK; read-out: CC50; molecule: Cc1ccc(C(=O)/C=C(O)/C(O)=C/C(=O)c2ccc(C)cc2)cc1
output: > 50 µM

Then there is this molecule:
input: Form entry - test system: MDCK; read-out: CC50; molecule: O=C(/C=C(O)/C(O)=C/C(=O)c1ccc(Cl)cc1)c1ccc(Cl)cc1
output: > 100 µM
